Listed next: entries and their corresponding IC50.
target: C-terminal domain (CTD) of human STING (Homo sapiens, UniProt Q86WV6); test: STING binding FP assay II (as FP assay I, lower STING concentration); set-up: recombinant human STING protein (155-379); conditions: 7 nM STING in buffer A, 4 nM fluorescein-labelled STING ligand (Probe 1)
Sequence (Q86WV6 155-379): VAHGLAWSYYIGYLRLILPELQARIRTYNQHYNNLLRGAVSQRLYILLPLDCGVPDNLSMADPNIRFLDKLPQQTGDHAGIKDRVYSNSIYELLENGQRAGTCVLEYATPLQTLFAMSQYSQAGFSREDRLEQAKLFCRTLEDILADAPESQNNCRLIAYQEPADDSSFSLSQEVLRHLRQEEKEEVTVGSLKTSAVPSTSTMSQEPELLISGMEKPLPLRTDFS
Expressed in nM, but write only the number.

molecule="CCNC(=O)COC(CCn1c(=NC(=O)c2cc(C)nn2CC)n(C)c2cc(C(N)=O)ccc21)CCn1c(=NC(=O)c2cc(C)nn2CC)n(C)c2cc(C(N)=O)ccc21 (stereo not shown) [Example 29]" value_observed=7.1
molecule="CCn1nc(C)cc1C(=O)N=c1n(C)c2cc(C(N)=O)ccc2n1CCC(CCn1c(=NC(=O)c2cc(C)nn2CC)n(C)c2cc(C(N)=O)ccc21)OCC(=O)N1CCC[C@H]1c1ccccc1 (stereo partly shown) [Example 25]" value_observed=4.6
molecule="CCn1nc(C)cc1C(=O)N=c1n(C)c2cc(C(N)=O)ccc2n1CCC(CCn1c(=NC(=O)c2cc(C)nn2CC)n(C)c2cc(C(N)=O)ccc21)OCC(=O)NC1CCN(C)CC1 (stereo not shown) [Example 10]" value_observed=3.5

Would you mind telling me what IC50 value was observed for CCn1nc(C)cc1C(=O)N=c1n(C)c2cc(C(N)=O)ccc2n1CCC(CCn1c(=NC(=O)c2cc(C)nn2CC)n(C)c2cc(C(N)=O)ccc21)OCC(=O)N1CCN(C(C)=O)CC1 (stereo not shown) [Example 12] ?
1.7

====

molecular target: C-terminal domain (CTD) of human STING (Homo sapiens, UniProt Q86WV6); assay: STING binding FP assay II (as FP assay I, lower STING concentration); set-up: recombinant human STING protein (155-379); conditions: 7 nM STING in buffer A, 4 nM fluorescein-labelled STING ligand (Probe 1)
Documented IC50 across a set of compounds
// units = nM; emit number, no label

Need IC50, item CCn1nc(C)cc1C(=O)N=c1n(C)c2cc(C(N)=O)ccc2n1CCC(CCn1c(=NC(=O)c2cc(C)nn2CC)n(C)c2cc(C(N)=O)ccc21)OCC(=O)N1CCOC[C@@H]1c1ccccc1 (some centres unmarked) [Example 30]
3.7

====

Known pIC50 of a selection of compounds
molecular target: C-terminal domain (CTD) of human STING (Homo sapiens, UniProt Q86WV6); experiment: STING binding FP assay II (as FP assay I, lower STING concentration); design: recombinant human STING protein (155-379); conditions: 7 nM STING in buffer A, 4 nM fluorescein-labelled STING ligand (Probe 1)
Note: pIC50 values are expressed as the negative base-10 logarithm of concentration in M.

compound="CCn1nc(C)cc1C(=O)N=c1n(C)c2cc(C(N)=O)ccc2n1CCC(CCn1c(=NC(=O)c2cc(C)nn2CC)n(C)c2cc(C(N)=O)ccc21)OCC(=O)N1CCC[C@@H]1c1cc(F)ccc1F (some centres unmarked)" study_target="C-terminal domain (CTD) of human STING (Homo sapiens, UniProt Q86WV6)" value_observed=8.43
compound="CCn1nc(C)cc1C(=O)N=c1n(C)c2cc(C(N)=O)ccc2n1CCC(CCn1c(=NC(=O)c2cc(C)nn2CC)n(C)c2cc(C(N)=O)ccc21)OCC(=O)N1CCC[C@H]1c1nnn[nH]1 (some centres unmarked)" study_target="C-terminal domain (CTD) of human STING (Homo sapiens, UniProt Q86WV6)" value_observed=8.08
compound="CCn1nc(C)cc1C(=O)N=c1n(C)c2cc(C(N)=O)ccc2n1CCC(CCn1c(=NC(=O)c2cc(C)nn2CC)n(C)c2cc(C(N)=O)ccc21)OCC(=O)Nc1cc(C)[nH]n1 (centres unmarked)" study_target="C-terminal domain (CTD) of human STING (Homo sapiens, UniProt Q86WV6)" value_observed=7.89
compound="CCn1nc(C)cc1C(=O)N=c1n(C)c2cc(C(N)=O)ccc2n1CCC(CCn1c(=NC(=O)c2cc(C)nn2CC)n(C)c2cc(C(N)=O)ccc21)OCC(=O)N1CCC[C@H]1C(=O)N1CCc2cc(OC)ccc2C1 (some centres unmarked)" study_target="C-terminal domain (CTD) of human STING (Homo sapiens, UniProt Q86WV6)" value_observed=8.46

Turning to the following compound.
Could you share which pIC50 value was measured for CCn1nc(C)cc1C(=O)N=c1n(C)c2cc(C(N)=O)ccc2n1CCC(CCn1c(=NC(=O)c2cc(C)nn2CC)n(C)c2cc(C(N)=O)ccc21)OCC(=O)n1nc(N)cc1C (centres unmarked) ?
8.20

====

molecular target: STING (Homo sapiens); construct: endogenous in cells; assay: Human FB STING antagonist assay (IFN-a/b release); conditions: Human skin fibroblasts, 2h pre-treatment, 300 nM GSK STING agonist (CAS number: 2138299-34-8) for 20 h, release of IFN-a/b by HEK-Blue IFN-α/β bioassay
Sequence (Q86WV6 whole entry): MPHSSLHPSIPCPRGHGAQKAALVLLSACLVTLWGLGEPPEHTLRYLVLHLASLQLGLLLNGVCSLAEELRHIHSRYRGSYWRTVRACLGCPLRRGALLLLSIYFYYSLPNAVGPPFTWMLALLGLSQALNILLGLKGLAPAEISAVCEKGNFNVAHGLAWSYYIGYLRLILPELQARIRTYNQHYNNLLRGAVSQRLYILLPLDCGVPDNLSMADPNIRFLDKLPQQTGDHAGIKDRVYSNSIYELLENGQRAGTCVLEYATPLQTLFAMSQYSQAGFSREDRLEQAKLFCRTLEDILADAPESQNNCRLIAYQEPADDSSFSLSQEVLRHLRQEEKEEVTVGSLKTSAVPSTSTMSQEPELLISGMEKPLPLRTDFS
Rule: measured IC50 below 5 µM gets true (1); anything equal to or greater than 5 µM gets false (0).

Past entries and their recorded results:
compound="CCn1nc(C)cc1C(=O)N=c1n(C)c2cc(C(N)=O)ccc2n1CCC(CCn1c(=NC(=O)c2cc(C)nn2CC)n(C)c2cc(C(N)=O)ccc21)OCC(=O)N1CCOCC1 (stereo not drawn)" study_target="STING (Homo sapiens)" discrete_label="true (1)"
compound=CCOC(=O)COC(CCn1c(NC(=O)c2cc(C)nn2CC)nc2cc(C(N)=O)ccc21)CCn1c(NC(=O)c2cc(C)nn2CC)nc2cc(C(N)=O)ccc21 study_target="STING (Homo sapiens)" discrete_label="true (1)"
compound="CCn1nc(C)cc1C(=O)N=c1n(C)c2cc(C(N)=O)ccc2n1CCC(CCn1c(=NC(=O)c2cc(C)nn2CC)n(C)c2cc(C(N)=O)ccc21)OCC(=O)Nc1cc(C)[nH]n1 (stereo not drawn)" study_target="STING (Homo sapiens)" discrete_label="false (0)"
compound="CCNC(=O)COC(CCn1c(=NC(=O)c2cc(C)nn2CC)n(C)c2cc(C(N)=O)ccc21)CCn1c(=NC(=O)c2cc(C)nn2CC)n(C)c2cc(C(N)=O)ccc21 (stereo not drawn)" study_target="STING (Homo sapiens)" discrete_label="false (0)"
compound="CCn1nc(C)cc1C(=O)N=c1n(C)c2cc(C(N)=O)ccc2n1CCC(CCn1c(=NC(=O)c2cc(C)nn2CC)n(C)c2cc(C(N)=O)ccc21)OCC(=O)N(CCOC)CCOC (stereo not drawn)" study_target="STING (Homo sapiens)" discrete_label="false (0)"

Record CCn1nc(C)cc1C(=O)N=c1n(C)c2cc(C(N)=O)ccc2n1CCC(CCn1c(=NC(=O)c2cc(C)nn2CC)n(C)c2cc(C(N)=O)ccc21)OCC(=O)N1CCOC[C@@H]1c1ccccc1 (stereo partly drawn) : is its IC50 strictly below 5 µM?
true (1)

Please let me know if CCOC(=O)COC(CCn1c(=NC(=O)c2cc(C)nn2CC)n(C)c2cc(C(N)=O)ccc21)CCn1c(=NC(=O)c2cc(C)nn2CC)n(C)c2cc(C(N)=O)ccc21 (stereo not drawn) shows IC50 below 5 µM.
true (1)

Strictly below 5 µM: is that where IC50 of CCn1nc(C)cc1C(=O)N=c1n(C)c2cc(C(N)=O)ccc2n1CCC(CCn1c(=NC(=O)c2cc(C)nn2CC)n(C)c2cc(C(N)=O)ccc21)OCC(=O)N1CCc2cc(OC)ccc2C1 (stereo not drawn) sits?
false (0)

For CCn1nc(C)cc1C(=O)N=c1n(C)c2cc(C(N)=O)ccc2n1CCC(CCn1c(=NC(=O)c2cc(C)nn2CC)n(C)c2cc(C(N)=O)ccc21)OCC(=O)Nc1ccncn1 (stereo not drawn) , is the recorded IC50 below the cut-off of 5 µM?
true (1)

====

Documented IC50 across a set of molecules
molecular target: C-terminal domain (CTD) of human STING (Homo sapiens, UniProt Q86WV6); assay: STING binding FP assay I (fluorescence polarization competition binding); parameters: recombinant human STING protein (155-379); details: recombinant human STING protein (155-379), 35 nM STING, 4 nM fluorescein-labelled STING ligand (Probe 1), 20 min at room temperature

molecule="CCn1nc(C)cc1C(=O)N=c1n(C)c2cc(C(N)=O)ccc2n1CCC(CCn1c(=NC(=O)c2cc(C)nn2CC)n(C)c2cc(C(N)=O)ccc21)OCC(=O)Nc1ccccc1 (stereo not drawn) [Example 6]" value_observed="< 30 nM"
molecule="CCn1nc(C)cc1C(=O)N=c1n(C)c2cc(C(N)=O)ccc2n1CCC(CCn1c(=NC(=O)c2cc(C)nn2CC)n(C)c2cc(C(N)=O)ccc21)OCC(=O)Nc1ccncn1 (stereo not drawn) [Example 8]" value_observed="< 30 nM"

Consider the additional molecule presented here.
What IC50 value was documented for this molecule, CCOC(=O)COC(CCn1c(=NC(=O)c2cc(C)nn2CC)n(C)c2cc(C(N)=O)ccc21)CCn1c(=NC(=O)c2cc(C)nn2CC)n(C)c2cc(C(N)=O)ccc21 (stereo not drawn) [Example 2] ?
< 30 nM

The values you see were collected from patent EP4534147A1.
